Target: T1, mouse IL-17A (mouse, UniProt Q62386 26-158, limits assumed)
T1 construct: In SPR it was injected in solution, and no biotinylation is mentioned there; also called mIL-17A; mIL17A
T1 sequence (looked up): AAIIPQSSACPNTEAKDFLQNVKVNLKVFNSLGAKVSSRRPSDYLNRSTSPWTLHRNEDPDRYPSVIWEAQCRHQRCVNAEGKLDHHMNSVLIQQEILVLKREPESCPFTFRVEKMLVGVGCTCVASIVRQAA
Assay: competition ELISA: purified His-tagged clone against biotinylated mIL-17A binding to coated mIL-17A receptor Fc
Description: An inhibition assay was performed to determine if the round 5 and 9 panning outputs against mouse IL-17A (mIL-17A) inhibited binding of mIL-17A to the mIL-17A receptor. […] The plates were incubated for an additional hour, washed with PB ST, and the biotinylated protein detected with streptavidin-HRP (Jackson Immunoresearch, West Grove, Pa.) and OPD colorimetric substrate (Sigma-Aldrich, St. Louis, Mo.). […]
measurementLabel: IC50 (nM)
Give the value in nM but do not write nM after it.

# annotated cases, reported IC50 shown
input: Which IC50 reading was recorded for the binder TP1KR9P62-C3 (designed binder, also called TCL14-His fusion protein) MLPAPKNLVVSRVTEDSARLSWTAPDAAFDSFAIEYFEDWWSGEAIVLTVPGSERSYDLTGLKPGTEYSVTIRGVKGGPPSSPLSAIFTT ?
output: 0.117

input: # query: IC50 of entry TP1KR9P62-D3 (designed binder, also called TCL14-His fusion protein) MLPAPKNLVVSRVTEDSARLSWTAPDAAFDSFAIEYFEDWWSGEAIVLTVPGSERSYDLTLKPGTEYSVSIRGVKGGYPSSPLSAIFTT
output: 0.0912

input: IC50 lookup needed for TP1KR9P62-C6 (designed binder, also called TCL14-His fusion protein) MLPAPKNLVVSRVTEDSARLSWTAPDAAFDSFAIEYFEDWWSGEAIVLTVPGSERSCDLTGLKPGTEYSVTIRGVKGGYPSSPLSAIFTT , thanks.
output: 0.109

input: Would you kindly share the measured IC50 for TP1KR9P62-D4 (designed binder, also called TCL14-His fusion protein) MLPAPKNLVVSRVTEDSARLSWTAPDAAFDSFGIIYFEDWWAGEAIVLTVPGSERSYDLTGLKPGTEYGVSIRGVKGGPPSRPLSAIFTT ?
output: 0.242

input: Fill blank: measured IC50 of the binder TP1KR9P61-E2 (designed binder, also called TCL14-His fusion protein) MLPAPKNLVVSRVTEDSARLSWTAPDAAFDSFAIEYFEDWWSGEAIVLTVPGSERSYDLTGLKPGTEYAVSIRGVKGGMPSPPLSAIFTT is ____.
output: 0.0428

input: Requested field: IC50. Item: TP1KR9P62-D8 (designed binder, also called TCL14-His fusion protein) MLPAPKNLVVSRVTEDSARLSWTAPDAAFDSFAIEYFEDWWSGEAIVLTVPGSERSYDLTGLKPGTEYGVSIRGVKGGLASPPLSAIFTT
output: 0.427

input: Name the recorded IC50 for TP1KR9P61-A2 (designed binder, also called TCL14-His fusion protein) MLPAPKNLVVSRVTEDSARLSWTAPDAAFDSFAIEYFEDWWSGEAIVLTVPGSERSYDLTGLKPGTEYAVSIRGVKGGMPSAPLSAIFTT .
output: 0.0339

input: Which IC50 is listed for TP1KR9P62-A2 (designed binder, also called TCL14-His fusion protein) MLPALKNLVVSRVTEDSAHLSWTAPDAAFDSFAIEYSEDYWLGEAIVLTVPGSERSYDLTGLKPGTEYGVSIRGVKGGYPSPPLSAIFTT ?
output: 0.261

---
input: For the binder shown here, TP1KR9P61-G4 (designed binder, also called TCL14-His fusion protein) MLPAPKNLVVSRVTEDSARLSWTAPDAAFDSFAIEYFEDWWSGEAIVLTVPGSERSYDLTGLKPGTEYAVSIRGVKGGYPSAPLSAIFTT , give the reported IC50.
output: 0.00883

input: I'd like to know its IC50. The binder in question is TP1KR9P62-H10 (designed binder, also called TCL14-His fusion protein) MLPAPKNLVVSRVTEDSARLSWTAPDAAFDSFAIEYFEDWWSGEAIVLTVPGSERSYDLTGLKPGTEYSVSIRGVKGGHPSVPLSAIFTT
output: 0.302

input: # IC50 lookup, item TP1KR9P61-A7 (designed binder, also called TCL14-His fusion protein) MLPAPKNLVVSRVTEDSARLSWTAPDAAFDSFAIEYFEDWWSGEAIVLTVPGSERSYDLTGLKPGTEYSVSIRGVKGGYPSSPLSAIFTT
output: 0.0558

input: Consider the binder TP1KR9P62-E3 (designed binder, also called TCL14-His fusion protein) MLPAPKNLVVSRVTEDSARLSWTAPDAAFDSFGIEYFEDYWTGEAIVLTVPGSERSYDLTGLKPGTEYAVSIRGVKGGYPSAPLSAIFTT and give its measured IC50.
output: 0.0642
